system: HEK-293T; assay: Multiplex assay against HEK293T; assay type: toxicity, cell-based; settings: human, 48 h, 10 µM, compound concentration 10 uM, replicate 1
quantity: Population Healthy Nuclei (%)
Numbers only, in %.

Would you please look over these solved cases?
# smiles_input, Population Healthy Nuclei (%)
measured = [
    ("Nc1ccc(C(=O)Nc2cccc(-c3nc(N4CCOCC4)c4oc5ncccc5c4n3)c2)cn1", 10),
    ("COc1cc2c(NC3CCN(C(C)C)CC3)nc(N3CCC(F)(F)CC3)nc2cc1OCCCN1CCCC1", 10),
    ("O=C(O)c1ccc2cc(-c3ccc(O)c(C45CC6CC(CC(C6)C4)C5)c3)ccc2c1", 30),
    ("COc1ccc(NS(=O)(=O)c2sc3ccc(Cl)cc3c2C)cc1N1CCNCC1.Cl", 39),
]

Here is the next item to consider.
Request: Param item = Nc1nc2c(c(N3CCNCC3)n1)CCC1=C2[C@@H]2CCCC[C@@H]2O1 ; retrieve measured Population Healthy Nuclei (%).
Response: 48

###

system: U2OS; assay: Multiplex assay against U2OS; assay type: toxicity, cell-based; conditions: human, 12 h, 1 µM, compound concentration 1 uM, replicate 2
Note that class boundaries on Population Pyknosed Nuclei (%) are low class: < 5%; middle class: ≥ 5% and < 7%; high class: ≥ 7%

# compound, assigned_category
records = [
    ("Cc1cn(-c2cc(NC(=O)c3ccc4c(c3)CN(c3cncnc3)C[C@@H]4C)cc(C(F)(F)F)c2)cn1", "middle class"),
    ("O=C(O)c1ccc2cc(-c3ccc(O)c(C45CC6CC(CC(C6)C4)C5)c3)ccc2c1", "low class"),
    ("COc1cc2c(NC3CCN(C(C)C)CC3)nc(N3CCC(F)(F)CC3)nc2cc1OCCCN1CCCC1", "high class"),
    ("CCc1cc2c(cc1CC)CC(NC[C@H](O)c1ccc(O)c3[nH]c(=O)ccc13)C2", "low class"),
    ("CCOc1cc(N2CCC(O)CC2)ccc1Nc1ncc2c(n1)N(C1CCCC1)CCC(=O)N2C", "low class"),
]

Request: # bin label for Cl.Cl.Nc1ncnc2c1c(-c1cccc(OCc3ccccc3)c1)cn2[C@H]1C[C@@H](CN2CCC2)C1
Response: high class

Request: Into which category would you place CN(C)C/C=C/C(=O)Nc1cc2c(Nc3ccc(F)c(Cl)c3)ncnc2cc1O[C@H]1CCOC1.O=C(O)/C=C\C(=O)O.O=C(O)/C=C\C(=O)O [AFATINIB DIMALEATE] ?
Response: middle class

Request: Would you mind sorting CC(=O)c1cc(-c2cc(C(=O)NC3CC3)ccc2C)c2ncccn12 into the appropriate category?
Response: middle class

###

test system: Fibroblast; assay: Multiplex assay against human fibroblast; format: toxicity, cell-based; settings: 24 h, 10 µM, compound concentration 10 uM, replicate 1
quantity: Population Tubulin-Different-Phenotype (%)
Give bare numbers, in %.

# compound, val
measured = [
    ("CCOc1cc2ncc(C#N)c(Nc3ccc(OCc4cccc(F)c4)c(Cl)c3)c2cc1NC(=O)/C=C/CN(C)C", 39),
    ("CCCn1c(=O)c2[nH]c(C34CC5CC(CC3C5)C4)nc2n(CCC)c1=O", 87),
    ("Cc1cn(-c2cc(NC(=O)c3ccc4c(c3)CN(c3cncnc3)C[C@@H]4C)cc(C(F)(F)F)c2)cn1", 26),
    ("Cl.Cl.Nc1ncnc2c1c(-c1cccc(OCc3ccccc3)c1)cn2[C@H]1C[C@@H](CN2CCC2)C1", 67),
    ("CC(C)N1CCC(C)(C)c2cc(C#Cc3ccc(C(=O)O)cc3)ccc21", 20),
    ("Nc1nc2c(c(N3CCNCC3)n1)CCC1=C2[C@@H]2CCCC[C@@H]2O1", 43),
]

For each of the items listed, what is its Population Tubulin-Different-Phenotype (%)?
1. CCC(=O)O[C@]1(C(=O)SCF)[C@H](C)C[C@H]2[C@@H]3C[C@H](F)C4=CC(=O)C=C[C@]4(C)[C@@]3(F)[C@@H](O)C[C@@]21C [FLUTICASONE PROPIONATE]
2. Cl.Cl.NC1(c2ccc(-c3nc4ccn5c(=O)[nH]nc5c4cc3-c3ccccc3)cc2)CCC1
3. CCOc1cc(N2CCC(O)CC2)ccc1Nc1ncc2c(n1)N(C1CCCC1)CCC(=O)N2C

Response:
1. 47
2. 42
3. 1

Entry source: ChEMBL document CHEMBL4689842
